Target: CD33 (Sino Biological, Cat #12238-H08H) (UniProt P20138 18-259)
Sequence (P20138 18-259 limits assumed): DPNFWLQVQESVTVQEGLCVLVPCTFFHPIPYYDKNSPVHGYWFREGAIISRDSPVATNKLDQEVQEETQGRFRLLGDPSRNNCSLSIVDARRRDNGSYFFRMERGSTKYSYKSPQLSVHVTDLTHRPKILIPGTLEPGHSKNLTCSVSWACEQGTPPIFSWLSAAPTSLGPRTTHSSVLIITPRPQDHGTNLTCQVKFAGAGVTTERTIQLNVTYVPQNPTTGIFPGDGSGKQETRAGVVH
Assay: BLI, IgG captured on anti-human Fc sensor, 50 nM CD33, pH 7.4 vs pH 5.0
metric: binding result

# binder, measurement
measured = [
    ("MYT0497 (antibody, V domains shown, IgG; gemtuzumab VH variant #16 (N55H)) VH: EVQLVQSGAEVKKPGSSVKVSCKASGYTITDSNIHWVRQAPGQSLEWIGYIYPYHGGTDYNQKFKNRATLTVDNPTNTAYMELSSLRSEDTDFYYCVNGNPWLAYWGQGTLVTVSS VL: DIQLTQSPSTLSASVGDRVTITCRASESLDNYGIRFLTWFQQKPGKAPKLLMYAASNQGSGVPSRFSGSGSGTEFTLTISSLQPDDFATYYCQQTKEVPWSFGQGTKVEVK", "binds"),
    ("MYT0488 (antibody, V domains shown, IgG; gemtuzumab VH variant #7 (S32H)) VH: EVQLVQSGAEVKKPGSSVKVSCKASGYTITDHNIHWVRQAPGQSLEWIGYIYPYNGGTDYNQKFKNRATLTVDNPTNTAYMELSSLRSEDTDFYYCVNGNPWLAYWGQGTLVTVSS VL: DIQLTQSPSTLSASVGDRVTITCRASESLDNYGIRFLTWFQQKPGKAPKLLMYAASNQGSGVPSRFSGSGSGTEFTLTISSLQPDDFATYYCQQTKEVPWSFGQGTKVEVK", "binds"),
    ("MYT0493 (antibody, V domains shown, IgG; gemtuzumab VH variant #12 (I51H)) VH: EVQLVQSGAEVKKPGSSVKVSCKASGYTITDSNIHWVRQAPGQSLEWIGYHYPYNGGTDYNQKFKNRATLTVDNPTNTAYMELSSLRSEDTDFYYCVNGNPWLAYWGQGTLVTVSS VL: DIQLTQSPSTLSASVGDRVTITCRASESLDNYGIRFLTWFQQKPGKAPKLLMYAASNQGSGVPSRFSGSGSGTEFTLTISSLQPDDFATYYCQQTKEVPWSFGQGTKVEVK", "binds"),
]
